Measured inhibition at 20 µM of individual entries
tested on: platelets (gel-filtered platelet rich plasma); test: Platelet Aggregation Inhibition Activity (agonist thrombin or ADP, light transmission); format: cell-based; settings: Homo sapiens, @ 20 μM, thrombin or ADP agonist, read-out: Aggregation (percentage increase in light transmission)
The answer is to be given in %; state only the numeric part.

Answered examples (2):
MOLECULE: CC(C)N(CCCCNC(=O)c1ccc(-c2csc(-c3ccc(C(F)(F)F)cc3)n2)cc1)C(C)C [Example 189]
inhibition at 20 µM / %: 86

MOLECULE: COc1ccc(-c2nc(-c3ccc(C(=O)NCCCN(C)C)cc3)cs2)cc1 [Example 187]
inhibition at 20 µM / %: 89

input: Give the value of inhibition at 20 µM reported for the following: CN(C)CCNC(=O)c1ccc(-c2csc(-c3ccc(C(F)(F)F)cc3)n2)cc1 [Example 174]
output: 85
